Cited source for all entries: ChEMBL document CHEMBL4270580

Test system: NIH3T3
Assay info: Cytotoxicity against mouse NIH/3T3 cells after 96 hrs by sulforhodamine-B assay
Assay type: cell-based
Experimental context: Mus musculus, NIH3T3, 96 h; read-out: EC50
Below, each entry is listed with its recorded EC50.
Metric name: EC50 (µM)

[[record]]
compound = "COc1ccc(C(=O)NC[C@]2(C)CCC[C@]3(C)c4cc(O)c(C(C)C)cc4CC[C@@H]23)cc1"
tested_on = "NIH3T3"
metric_name = "EC50"
units_text = "µM"
qualifier = "="
quantitative_readout = 23.2

[[record]]
compound = "CC(=O)Oc1cc2c(cc1C(C)C)CC[C@H]1[C@](C)(CNC(=O)c3ccncc3)CCC[C@]21C"
tested_on = "NIH3T3"
metric_name = "EC50"
units_text = "µM"
qualifier = "="
quantitative_readout = 29.5

[[record]]
compound = "COc1ccc(C(=O)NC[C@]2(C)CCC[C@]3(C)c4ccc(C(C)C)cc4CC[C@@H]23)cc1"
tested_on = "NIH3T3"
metric_name = "EC50"
units_text = "µM"
qualifier = "="
quantitative_readout = 22.8

[[record]]
compound = "CC(C)c1cc2c(cc1O)[C@@]1(C)CCC[C@@](C)(CNC(=O)c3ccncc3)[C@@H]1CC2"
tested_on = "NIH3T3"
metric_name = "EC50"
units_text = "µM"
qualifier = "="
quantitative_readout = 24.2

[[record]]
compound = "CC(=O)Oc1cc2c(cc1C(C)C)CC[C@H]1[C@](C)(CNC(=O)CCCC[C@H]3SCC4NC(=O)NC43)CCC[C@]21C (stereo partly drawn)"
tested_on = "NIH3T3"
metric_name = "EC50"
units_text = "µM"
qualifier = ">"
quantitative_readout = 30

[[record]]
compound = "CC(C)c1cc2c(cc1O)[C@@]1(C)CCC[C@@](C)(CNC(=O)CCCC[C@H]3SCC4NC(=O)NC43)[C@@H]1CC2 (stereo partly drawn)"
tested_on = "NIH3T3"
metric_name = "EC50"
units_text = "µM"
qualifier = ">"
quantitative_readout = 30

[[record]]
compound = "CC(=O)Oc1cc2c(cc1C(C)C)CC[C@H]1[C@](C)(CNC(=O)c3ccc(Cl)cc3)CCC[C@]21C"
tested_on = "NIH3T3"
metric_name = "EC50"
units_text = "µM"
qualifier = ">"
quantitative_readout = 30

[[record]]
compound = "CC(C)c1ccc2c(c1)CC[C@H]1[C@](C)(CN)CCC[C@]21C"
tested_on = "NIH3T3"
metric_name = "EC50"
units_text = "µM"
qualifier = "="
quantitative_readout = 2.4


###

System: NIH3T3
Assay info: Cytotoxicity against mouse NIH/3T3 cells after 96 hrs by sulforhodamine-B assay
Format: cell-based
Experimental context: Mus musculus, NIH3T3, 96 h; read-out: EC50
Metric name: EC50 (µM)

[[record]]
compound = "CC(C)c1ccc2c(c1)CC[C@H]1[C@](C)(CNC(=O)c3ccc(Cl)cc3)CCC[C@]21C"
metric_name = "EC50"
qualifier = ">"
quantitative_readout = 30

[[record]]
compound = "CC(=O)Oc1cc2c(cc1C(C)C)CC[C@H]1[C@](C)(CN)CCC[C@]21C"
metric_name = "EC50"
qualifier = ">"
quantitative_readout = 30

[[record]]
compound = "CC(C)c1cc2c(cc1OC(=O)c1ccccc1)[C@@]1(C)CCC[C@@](C)(CNC(=O)c3ccccc3)[C@@H]1CC2"
metric_name = "EC50"
qualifier = ">"
quantitative_readout = 30

[[record]]
compound = "CC(C)c1cc2c(cc1O)[C@@]1(C)CCC[C@@](C)(CNC(=O)c3ccc(O)cc3)[C@@H]1CC2"
metric_name = "EC50"
qualifier = ">"
quantitative_readout = 30

[[record]]
compound = "CC(C)c1cc2c(cc1O)[C@@]1(C)CCC[C@@](C)(CNC(=O)c3ccccc3)[C@@H]1CC2"
metric_name = "EC50"
qualifier = "="
quantitative_readout = 18.1

[[record]]
compound = "Cc1ccc(C(=O)NC[C@]2(C)CCC[C@]3(C)c4cc(O)c(C(C)C)cc4CC[C@@H]23)cc1"
metric_name = "EC50"
qualifier = "="
quantitative_readout = 16.8

[[record]]
compound = "CC(C)c1cc2c(cc1O)[C@@]1(C)CCC[C@@](C)(CN)[C@@H]1CC2"
metric_name = "EC50"
qualifier = "="
quantitative_readout = 22

[[record]]
compound = "Cc1ccc(C(=O)NC[C@]2(C)CCC[C@]3(C)c4ccc(C(C)C)cc4CC[C@@H]23)cc1"
metric_name = "EC50"
qualifier = "="
quantitative_readout = 13.5

[[record]]
compound = "C=C(C)[C@@H]1CC[C@]2(C(=O)O)CC[C@]3(C)[C@H](CC[C@@H]4[C@@]5(C)CC[C@H](O)C(C)(C)[C@@H]5CC[C@]43C)[C@@H]12"
metric_name = "EC50"
qualifier = "="
quantitative_readout = 12.9

[[record]]
compound = "CC(C)c1ccc2c(c1)CC[C@H]1[C@](C)(CNC(=O)c3ccncc3)CCC[C@]21C"
metric_name = "EC50"
qualifier = "="
quantitative_readout = 16.9

[[record]]
compound = "CC(=O)Oc1cc2c(cc1C(C)C)CC[C@H]1[C@](C)(CNC(=O)c3ccc(C)cc3)CCC[C@]21C"
metric_name = "EC50"
qualifier = ">"
quantitative_readout = 30

[[record]]
compound = "CC(=O)Oc1ccc(C(=O)NC[C@]2(C)CCC[C@]3(C)c4cc(OC(C)=O)c(C(C)C)cc4CC[C@@H]23)cc1"
metric_name = "EC50"
qualifier = "="
quantitative_readout = 21.4

[[record]]
compound = "CC(C)c1cc2c(cc1O)[C@@]1(C)CCC[C@@](C)(CNC(=O)c3ccc(Cl)cc3)[C@@H]1CC2"
metric_name = "EC50"
qualifier = "="
quantitative_readout = 16

[[record]]
compound = "CC(C)c1ccc2c(c1)CC[C@H]1[C@](C)(CNC(=O)CCCC[C@H]3SCC4NC(=O)NC43)CCC[C@]21C (some centres not stated)"
metric_name = "EC50"
qualifier = "="
quantitative_readout = 15.7

[[record]]
compound = "CC(=O)Oc1cc2c(cc1C(C)C)CC[C@H]1[C@](C)(CNC(=O)c3ccccc3)CCC[C@]21C"
metric_name = "EC50"
qualifier = "="
quantitative_readout = 17.3

[[record]]
compound = "CC(C)c1ccc2c(c1)CC[C@H]1[C@](C)(CNC(=O)c3ccccc3)CCC[C@]21C"
metric_name = "EC50"
qualifier = ">"
quantitative_readout = 30

[[record]]
compound = "CC(C)c1ccc2c(c1)CC[C@H]1[C@](C)(CNC(=O)c3ccc(O)cc3)CCC[C@]21C"
metric_name = "EC50"
qualifier = "="
quantitative_readout = 6.9

